Test system: MCF7 (MCF7/ATCC) cells
Assay: Cell viability (cell kill) assay, nuclear counts
Type: cell-based
Conditions: MCF7/ATCC; Table 20
measurement.label: % Kill (%)
The reply should be a number in %, with the unit left off.

Recorded results for 2 molecules are shown here.
INSERT INTO results (molecule, measurement_label, scale_unit, readout_value) VALUES
  ('H1H6958N2-SPDB-DM4 (conjugate) VH: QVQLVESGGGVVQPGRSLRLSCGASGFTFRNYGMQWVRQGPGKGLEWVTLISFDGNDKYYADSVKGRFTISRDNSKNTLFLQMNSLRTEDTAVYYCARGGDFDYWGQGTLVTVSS VL: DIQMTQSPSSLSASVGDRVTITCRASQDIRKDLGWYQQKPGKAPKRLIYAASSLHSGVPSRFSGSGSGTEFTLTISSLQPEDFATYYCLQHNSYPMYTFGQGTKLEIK', '% Kill', '%', 80),
  ('H1H6782P-mc-VC-PAB-MMD (conjugate) VH: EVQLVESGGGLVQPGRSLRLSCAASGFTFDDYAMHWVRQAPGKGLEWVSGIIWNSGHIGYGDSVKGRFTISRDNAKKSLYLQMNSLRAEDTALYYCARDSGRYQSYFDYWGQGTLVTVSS VL: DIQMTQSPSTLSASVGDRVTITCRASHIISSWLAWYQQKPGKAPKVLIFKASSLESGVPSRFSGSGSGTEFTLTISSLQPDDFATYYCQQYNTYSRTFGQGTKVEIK', '% Kill', '%', 50);

Please turn your attention to the following entry.
Please give measured % Kill of the following entry: H1H6782P-SMCC-DM1 (conjugate) VH: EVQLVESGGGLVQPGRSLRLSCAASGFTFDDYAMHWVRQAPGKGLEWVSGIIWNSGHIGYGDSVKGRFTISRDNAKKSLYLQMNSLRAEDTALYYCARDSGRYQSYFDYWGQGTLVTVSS VL: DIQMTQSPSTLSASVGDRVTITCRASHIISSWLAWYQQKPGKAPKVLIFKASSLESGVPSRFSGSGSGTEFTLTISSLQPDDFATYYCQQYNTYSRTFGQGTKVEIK 70

Just for reference, patent US9688764B2 is where these values come from.
